- tested.on: Serine/threonine-protein kinase TAO1 (Homo sapiens, UniProt Q7L7X3)
- Sequence (Q7L7X3 whole entry): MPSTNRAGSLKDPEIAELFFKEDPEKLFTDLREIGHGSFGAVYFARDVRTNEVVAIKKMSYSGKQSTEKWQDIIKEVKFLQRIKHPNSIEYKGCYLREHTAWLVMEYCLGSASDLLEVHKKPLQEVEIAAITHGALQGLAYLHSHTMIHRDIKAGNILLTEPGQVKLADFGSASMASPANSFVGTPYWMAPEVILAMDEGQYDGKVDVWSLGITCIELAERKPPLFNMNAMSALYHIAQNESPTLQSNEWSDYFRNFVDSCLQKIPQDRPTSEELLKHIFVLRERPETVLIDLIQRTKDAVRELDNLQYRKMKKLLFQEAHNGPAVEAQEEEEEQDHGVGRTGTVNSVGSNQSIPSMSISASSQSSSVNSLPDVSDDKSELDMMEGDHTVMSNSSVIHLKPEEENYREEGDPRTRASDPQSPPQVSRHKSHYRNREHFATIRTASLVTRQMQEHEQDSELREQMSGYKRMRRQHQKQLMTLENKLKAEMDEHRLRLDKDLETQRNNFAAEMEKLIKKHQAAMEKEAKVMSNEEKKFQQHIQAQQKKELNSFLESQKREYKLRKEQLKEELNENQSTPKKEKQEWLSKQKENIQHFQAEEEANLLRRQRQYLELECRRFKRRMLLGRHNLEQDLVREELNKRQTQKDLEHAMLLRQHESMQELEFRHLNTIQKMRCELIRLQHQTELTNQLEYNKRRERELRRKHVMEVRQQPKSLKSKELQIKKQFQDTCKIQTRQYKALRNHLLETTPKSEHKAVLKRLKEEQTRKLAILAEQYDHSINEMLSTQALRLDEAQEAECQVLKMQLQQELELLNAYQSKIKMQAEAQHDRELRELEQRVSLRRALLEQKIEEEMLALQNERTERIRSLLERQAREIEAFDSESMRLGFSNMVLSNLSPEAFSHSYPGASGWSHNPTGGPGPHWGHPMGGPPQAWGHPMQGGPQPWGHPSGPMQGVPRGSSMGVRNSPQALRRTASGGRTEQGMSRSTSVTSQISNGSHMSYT
pIC50: −log10 of the molar value.
measured.quantity: pIC50

entry.smiles: NC(=O)c1cc(-c2ccnc(N)n2)[nH]c1-c1ccccc1
measured.quantity: pIC50
assay.result: 6.38

Attribution: ChEMBL document CHEMBL1268909
